These measurements were taken from patent US20260062387A1.

Measured IC50 (GST-tagged SIK2 (Homo sapiens (Human), UniProt Q9H0K1))
ENDPOINT: IC50 (nM)

- MOLECULE: "COc1cc(-c2c3c(OCC4CC4)cc(-c4cnn(C)c4)cc3nn2C)cc(OC(F)F)c1C(=O)N1CC(O)(C(F)(F)F)C1"
  IC50 [nM]: 10.3
- MOLECULE: "COc1cc(-c2c3c(C(F)F)cc(-c4cnn(C[C@H](C)O)c4)cc3nn2C)cc(OC(F)F)c1C(=O)N1CC(O)(C(F)F)C1"
  IC50 [nM]: 12.7
- MOLECULE: "COc1cc(-c2c3c(C#N)cc(-c4cnn(CCC5(O)CCC5)c4)cc3nn2C)cc(OC(F)F)c1C(=O)NCC1(F)CC1"
  IC50 [nM]: 7.9

[P] CCn1cc(-c2cc(C#N)c3c(-c4cc(OC(F)F)c5c(c4)[C@@H](C)CNC5=O)n(C)nc3c2)cn1 (single isomer, unassigned)
[Q] C[C@H]1CNC(=O)c2c(OC(F)F)cc(-c3c4c(C#N)cc(-c5cnn(C)c5)cc4nn3C)cc21 (single isomer, unassigned)
[R] COc1cc(-c2c3ccc(OCCN4CCOCC4)cc3nn2C)cc(OC(F)F)c1C(=O)NC1CC1 [Comparative Example 7, reference compound]
Sort ascending by IC50. List the labels according to the requested ordering. P, Q, R
(P: 2.3 nM, Q: 6.1 nM, R: 369 nM)

###

A short record of IC50 observed with GST-tagged SIK3 (Homo sapiens (Human), UniProt Q9Y2K2) follows.
Sequence (Q9Y2K2 whole entry): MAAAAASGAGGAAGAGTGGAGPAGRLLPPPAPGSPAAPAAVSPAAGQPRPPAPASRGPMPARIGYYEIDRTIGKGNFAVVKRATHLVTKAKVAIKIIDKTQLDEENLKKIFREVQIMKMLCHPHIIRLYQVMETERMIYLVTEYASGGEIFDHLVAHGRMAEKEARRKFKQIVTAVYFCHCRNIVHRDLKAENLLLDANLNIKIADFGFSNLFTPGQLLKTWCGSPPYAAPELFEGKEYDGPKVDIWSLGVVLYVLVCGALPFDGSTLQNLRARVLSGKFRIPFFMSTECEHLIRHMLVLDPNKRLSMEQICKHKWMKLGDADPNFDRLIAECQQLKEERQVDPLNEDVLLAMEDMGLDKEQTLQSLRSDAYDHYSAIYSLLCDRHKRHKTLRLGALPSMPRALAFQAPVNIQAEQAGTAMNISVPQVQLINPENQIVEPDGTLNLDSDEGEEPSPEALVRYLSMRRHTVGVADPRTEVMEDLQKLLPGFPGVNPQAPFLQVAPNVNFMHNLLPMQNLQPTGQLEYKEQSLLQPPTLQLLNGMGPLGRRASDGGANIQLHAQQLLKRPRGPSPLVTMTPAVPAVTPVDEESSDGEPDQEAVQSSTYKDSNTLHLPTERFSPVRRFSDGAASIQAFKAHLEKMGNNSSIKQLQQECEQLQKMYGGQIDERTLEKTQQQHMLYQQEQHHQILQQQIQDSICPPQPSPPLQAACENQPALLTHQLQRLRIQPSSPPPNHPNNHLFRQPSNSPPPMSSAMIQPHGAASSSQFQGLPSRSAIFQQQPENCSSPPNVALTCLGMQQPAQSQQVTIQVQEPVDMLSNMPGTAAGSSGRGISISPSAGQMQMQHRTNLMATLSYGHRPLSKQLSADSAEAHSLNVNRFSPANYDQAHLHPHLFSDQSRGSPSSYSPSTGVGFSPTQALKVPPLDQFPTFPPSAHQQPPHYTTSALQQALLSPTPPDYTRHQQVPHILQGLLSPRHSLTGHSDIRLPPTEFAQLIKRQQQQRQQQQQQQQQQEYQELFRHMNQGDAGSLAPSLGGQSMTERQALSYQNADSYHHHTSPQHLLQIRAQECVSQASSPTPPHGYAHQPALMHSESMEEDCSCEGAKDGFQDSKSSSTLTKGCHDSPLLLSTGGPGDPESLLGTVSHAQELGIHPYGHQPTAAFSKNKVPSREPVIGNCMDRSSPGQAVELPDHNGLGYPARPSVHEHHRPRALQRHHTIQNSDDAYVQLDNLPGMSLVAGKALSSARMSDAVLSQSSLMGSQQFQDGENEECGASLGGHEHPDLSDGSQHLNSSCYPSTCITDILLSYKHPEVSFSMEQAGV
ENDPOINT: IC50 (nM)

Examples from the recorded data:
- SMILES_DATA: "COc1cc(-c2c3c(C(F)F)cc(-c4cnn(CC(C)(C)O)c4)cc3nn2C)cc(OC(F)F)c1C(=O)N[C@@H]1CC1(F)F"
  MEASUREMENT: 2.3
- SMILES_DATA: "COc1cc(-c2c3c(C#N)cc(-c4cnn(CC[C@@H](C)O)c4)cc3nn2C)cc(OC(F)F)c1C(=O)NCC1(F)CC1"
  MEASUREMENT: 10.2
- SMILES_DATA: "COc1cc(-c2c3c(OC(F)F)cc(-c4cnn(C)c4)cc3nn2C)cc(OC(F)F)c1C(=O)N1CC(O)(C(F)(F)F)C1"
  MEASUREMENT: 2.4
- SMILES_DATA: "COc1cc(-c2c3c(C#N)cc(-c4cnn(Cc5ncco5)c4)cc3nn2C)cc(OC(F)F)c1C(=O)NCC1(F)CC1"
  MEASUREMENT: 13.3
- SMILES_DATA: "COc1cc(-c2c3c(OCC(F)F)cc(-c4cnn(C)c4)cc3nn2C)cc(OC(F)F)c1C(N)=O"
  MEASUREMENT: 2.6

[A] COc1cc(-c2c3c(C#N)cc(-c4cnn(CCC(C)(C)O)c4)cc3nn2C)cc(OC(F)F)c1C(N)=O
[B] COc1cc(-c2c3c(C#N)cc(-c4cnn(CC5CC5)c4)cc3nn2C)cc(OC(F)F)c1C(N)=O
[C] COc1cc(-c2c3c(OCc4ccncc4)cc(-c4cnn(C)c4)cc3nn2C)cc(OC(F)F)c1C(=O)N1CC(O)(C(F)(F)F)C1
Put these in order: smallest IC50 first, largest last. Your answer should be the labels, listed in the requested order. A, B, C
(A: 2.7 nM, B: 6.6 nM, C: 12.9 nM)

###

pIC50: −log10 of the molar value.
Listed here: compounds with reported pIC50 for GST-tagged SIK2 (Homo sapiens (Human), UniProt Q9H0K1).
ENDPOINT: pIC50

Worked cases, answers included:
- COMPOUND: "Cn1cc(-c2cc(C#N)c3c(-c4cc(OC(F)F)c5c(c4)C(C)(C)CNC5=O)n(C)nc3c2)cn1"
  EXPERIMENTAL_SYSTEM: "GST-tagged SIK2 (Homo sapiens (Human), UniProt Q9H0K1)"
  pIC50: 8.60
- COMPOUND: "CCOc1cc(-c2cnn(C)c2)cc2nn(C)c(-c3cc(OC)c(C(N)=O)c(OC(F)F)c3)c12"
  EXPERIMENTAL_SYSTEM: "GST-tagged SIK2 (Homo sapiens (Human), UniProt Q9H0K1)"
  pIC50: 8.47

[P] COc1cc(-c2c3c(OC(F)F)cc(-c4cnn(C)c4)cc3nn2C)cc(OC(F)F)c1C(=O)N1CC(O)(C(F)(F)F)C1
[Q] COc1cc(-c2c3c(C#N)cc(-c4cnn(C(C)C)c4)cc3nn2C)cc(OC(F)F)c1C(=O)N[C@@H]1C[C@@H]1F
[R] COc1cc(-c2c3c(C#N)cc(-c4cnn(C)c4)cc3nn2C)cc2c1C(=O)NCC2C (stereo not shown)
Falling order of pIC50, please. # the answer lists labels in the order requested Q, R, P
(Q: 8.59, R: 8.28, P: 8.06)

[a] COc1cc(-c2c3c(C#N)cc(-c4cnn(CCC(C)(C)O)c4)cc3nn2C)cc(OC(F)F)c1C(=O)NCC1(F)CC1
[b] COc1cc(-c2cnn(C[C@H](C)O)c2)cc2nn(C)c(-c3cc(OC(F)F)c4c(c3)[C@@H](C)CNC4=O)c12 (single isomer, unassigned) [Example 176]
Higher pIC50 between a and b ? In your reply, give the label of the chosen option. b
(b: 8.23, a: 7.98)

###

# EXPERIMENTAL_SYSTEM: GST-tagged SIK1 (Homo sapiens (Human), UniProt P57059)
# Sequence (P57059 whole entry): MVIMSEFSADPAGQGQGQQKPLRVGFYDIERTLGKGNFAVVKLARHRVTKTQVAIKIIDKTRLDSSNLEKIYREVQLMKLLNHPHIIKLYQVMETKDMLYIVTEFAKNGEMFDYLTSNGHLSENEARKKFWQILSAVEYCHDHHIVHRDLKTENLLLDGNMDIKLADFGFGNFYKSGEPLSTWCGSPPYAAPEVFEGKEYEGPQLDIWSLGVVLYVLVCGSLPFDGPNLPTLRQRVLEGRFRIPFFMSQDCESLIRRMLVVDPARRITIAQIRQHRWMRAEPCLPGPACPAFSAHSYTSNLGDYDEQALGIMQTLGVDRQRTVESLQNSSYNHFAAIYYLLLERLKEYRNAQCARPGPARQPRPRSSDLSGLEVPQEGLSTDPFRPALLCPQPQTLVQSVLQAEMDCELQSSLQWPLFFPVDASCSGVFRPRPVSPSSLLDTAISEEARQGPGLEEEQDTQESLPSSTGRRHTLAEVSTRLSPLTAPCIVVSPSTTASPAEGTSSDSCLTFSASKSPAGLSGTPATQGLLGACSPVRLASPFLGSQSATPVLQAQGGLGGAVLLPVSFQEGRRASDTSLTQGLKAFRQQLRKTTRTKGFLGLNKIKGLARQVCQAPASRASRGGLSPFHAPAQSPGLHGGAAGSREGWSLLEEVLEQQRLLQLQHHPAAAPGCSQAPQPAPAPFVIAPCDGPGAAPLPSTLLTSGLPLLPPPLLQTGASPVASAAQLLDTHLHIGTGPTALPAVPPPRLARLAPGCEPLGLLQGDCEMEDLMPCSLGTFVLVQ
pIC50: −log10 of the molar value.
ENDPOINT: pIC50

Worked cases, answers included:
- COMPOUND: "COCCn1cc(-c2cc(OC)c3c(-c4cc(OC(F)F)c5c(c4)[C@@H](C)CNC5=O)n(C)nc3c2)cn1 (single isomer, unassigned) [Example 178]"
  EXPERIMENTAL_SYSTEM: "GST-tagged SIK1 (Homo sapiens (Human), UniProt P57059)"
  pIC50: 8.00
- COMPOUND: "COc1cc(-c2c3c(OC(F)F)cc(-c4cnn(C)c4)cc3nn2C)cc(OC(F)F)c1C(N)=O [Example 131]"
  EXPERIMENTAL_SYSTEM: "GST-tagged SIK1 (Homo sapiens (Human), UniProt P57059)"
  pIC50: 7.91
- COMPOUND: "COc1cc(-c2c3c(C(F)F)cc(-c4cnn(C[C@H](C)O)c4)cc3nn2C)cc(OC(F)F)c1C(=O)N[C@@H]1CC1(F)F [Example 89]"
  EXPERIMENTAL_SYSTEM: "GST-tagged SIK1 (Homo sapiens (Human), UniProt P57059)"
  pIC50: 7.96
- COMPOUND: "CCn1cc(-c2cc(C(F)F)c3c(-c4cc(OC)c(C(N)=O)c(OC(F)F)c4)n(C)nc3c2)cn1 [Example 112]"
  EXPERIMENTAL_SYSTEM: "GST-tagged SIK1 (Homo sapiens (Human), UniProt P57059)"
  pIC50: 7.78

[A] COc1cc(-c2c3c(C#N)cc(-c4cn[nH]c4)cc3nn2C)cc2c1C(=O)NCC2(C)C [Example 147]
[B] COc1cc(-c2c3c(C#N)cc(-c4cnn(CC(=O)N5CCC(F)(F)C5)c4)cc3nn2C)cc(OC(F)F)c1C(=O)NCC1(F)CC1 [Example 101]
Between the entries labeled A and B , whose measured pIC50 is lower? # reply format: chosen label B

[P] C[C@H]1CNC(=O)c2c(OC(F)F)cc(-c3c4c(C#N)cc(-c5cnn(C)c5)cc4nn3C)cc21 (single isomer, unassigned) [Example 182]
[Q] CCn1cc(-c2cc(C(F)F)c3c(-c4cc(OC)c(C(=O)N[C@@H]5CC5(F)F)c(OC(F)F)c4)n(C)nc3c2)cn1 [Example 116]
Identify the entry with the smaller pIC50: P or Q . Your choice should be expressed through its label. Q
(Q: 7.79, P: 8.19)

###

# GST-tagged SIK3 (Homo sapiens (Human)): IC50 values follow
ENDPOINT: IC50 (nM)

Record excerpt, results attached:
- SMILES_DATA: "COc1cc(-c2c3c(C(F)F)cc(-c4cnn(C)c4)cc3nn2C)cc(OC(F)F)c1C(N)=O"
  IC50 [nM]: 4.3
- SMILES_DATA: "COc1cc(-c2c3c(C(F)F)cc(-c4cnn([C@H]5CCOC5)c4)cc3nn2C)cc(OC(F)F)c1C(N)=O"
  IC50 [nM]: 3.6

[1] COc1cc(-c2c3c(C#N)cc(-c4cnn(CC(F)F)c4)cc3nn2C)cc(OC(F)F)c1C(N)=O
[2] COc1cc(-c2c3c(OCCCO)cc(-c4cnn(C)c4)cc3nn2C)cc(OC(F)F)c1C(=O)N[C@@H]1C[C@@H]1F
Out of 1 and 2 , name the one with the higher IC50. Your choice should be expressed through its label. 2
(2: 11.5 nM, 1: 5.1 nM)
